Reference source for all entries: patent US7759345B2

Give CC50 for every item shown.
test system: IGROV-ET; experiment: Inhibition of cells growth by colorimetric assay (SRB), IGROV-ET; type: cell-based; conditions: Homo sapiens, 48 h, read-out: LC50 IGROV-ET, IGROV-ET; SRB, 48 hours exposure
One number for each entry, in nM.

// worked examples, CC50 included
COc1cc2c(cc1O)CCN[C@]21CS[C@@H]2c3c(OC(C)=O)c(C)c4c(c3[C@H](COC1=O)N1C2[C@H]2c3c(cc(C)c(OC)c3OC(C)C)C[C@@H]([C@@H]1C#N)N2C)OCO4 (stereo partly shown) :: 12300
COc1cc2c(cc1OC(=O)C(F)(F)C(F)(F)C(F)(F)F)CCN[C@]21CS[C@@H]2c3c(OC(C)=O)c(C)c4c(c3[C@H](COC1=O)N1C2[C@H]2c3c(cc(C)c(OC)c3O)C[C@@H]([C@@H]1O)N2C)OCO4 (stereo partly shown) :: 19.7
COc1cc2c(cc1OC(=O)c1cc3ccccc3oc1=O)CCN[C@]21CS[C@@H]2c3c(OC(C)=O)c(C)c4c(c3[C@H](COC1=O)N1C2[C@H]2c3c(cc(C)c(OC)c3O)C[C@@H]([C@@H]1O)N2C)OCO4 (stereo partly shown) :: 21

Let us move to another entry and its CC50.
Exercise: Param item = COc1cc2c(cc1OC)[C@@]1(CS[C@@H]3c4c(OC(C)=O)c(C)c5c(c4[C@H](COC1=O)N1C3[C@H]3c4c(cc(C)c(OC)c4O)C[C@@H]([C@@H]1O)N3C)OCO5)NCC2 (stereo partly shown) ; retrieve measured CC50.
Solution: 4960
